run_description: Rheometry of the gels (time, frequency and stress sweeps)
Type: physicochemical
conditions_used: gel at 40 mM gelator concentration; standard deviation in brackets; rounded to nearest 100

compound: COc1c(NC=C2C(=O)C(=CNc3cccc(C(=O)O)c3OC)C(=O)C(=CNc3cccc(C(=O)O)c3OC)C2=O)cccc1C(=O)O [R7]
G′: 8800(200) Pa

compound: O=C1C(=CNc2ccc(Cl)c(C(=O)O)c2)C(=O)C(=CNc2ccc(Cl)c(C(=O)O)c2)C(=O)C1=CNc1ccc(Cl)c(C(=O)O)c1 [R2]
G′: 12700(100) Pa

compound: O=C1C(=CNc2ccc(O)cc2)C(=O)C(=CNc2ccc(O)cc2)C(=O)C1=CNc1ccc(O)cc1 [R9]
G′: 1200(100) Pa

compound: O=C1C(=CNc2ccc(C(=O)O)cc2)C(=O)C(=CNc2ccc(C(=O)O)cc2)C(=O)C1=CNc1ccc(C(=O)O)cc1 [R1]
G′: 9000(200) Pa

compound: Cc1cc(NC=C2C(=O)C(=CNc3ccc(C(=O)O)c(C)c3)C(=O)C(=CNc3ccc(C(=O)O)c(C)c3)C2=O)ccc1C(=O)O [R8]
G′: 9600(100) Pa

compound: O=C1C(=CNc2cc(C(=O)O)cc(C(F)(F)F)c2)C(=O)C(=CNc2cc(C(=O)O)cc(C(F)(F)F)c2)C(=O)C1=CNc1cc(C(=O)O)cc(C(F)(F)F)c1 [R6]
G′: 15400(300) Pa

compound: COc1cc(NC=C2C(=O)C(=CNc3ccc(C(=O)O)c(OC)c3)C(=O)C(=CNc3ccc(C(=O)O)c(OC)c3)C2=O)ccc1C(=O)O [R3]
G′: 10200(300) Pa

compound: O=C1C(=CNc2ccc(C(=O)O)cc2O)C(=O)C(=CNc2ccc(C(=O)O)cc2O)C(=O)C1=CNc1ccc(C(=O)O)cc1O [R4]
G′: 9300(200) Pa

compound: O=C1C(=CNc2cc(C(=O)O)ccc2O)C(=O)C(=CNc2cc(C(=O)O)ccc2O)C(=O)C1=CNc1cc(C(=O)O)ccc1O [R5]
G′: 10800(200) Pa
